ASSAY REMARKS: NCI Yeast Anticancer Drug Screen. Data for the cln2 rad14 strain (AID 165);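 note: 0% = growth equal to vehicle treated cultures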
RUN CONDITIONS: S. cerevisiae cln2 rad14 strain, at 50.0 µM, active compounds read high
This is part of a sample that, as a whole, favours compounds with a hit. Of some 79,000 tested, about 15% had one in any assay.
METRIC NAME: growth inhibition (%)

MOLECULE: CC(=O)Nc1ccc(NC(=S)Nc2ccc(NC(C)=O)cc2)cc1
UNITS SYMBOL: %
REPORTED: -5.1
--
MOLECULE: Cc1ccccc1SCc1nc2ccccc2c(C)[n+]1[O-]
UNITS SYMBOL: %
REPORTED: 35
--
MOLECULE: CCCCC#CC(=O)OCCC
UNITS SYMBOL: %
REPORTED: 85.5
--
MOLECULE: CSC(=Nc1ccccc1)/N=C(\SCc1ccccc1)N(C)C
UNITS SYMBOL: %
REPORTED: 98.8
--
MOLECULE: C=CC(=O)Oc1ccccc1/C=C/C(=O)CCCCCC
UNITS SYMBOL: %
REPORTED: 62.8
--
MOLECULE: O=C(c1ccc(Cl)cc1)c1ccc([N+](=O)[O-])cc1
UNITS SYMBOL: %
REPORTED: -2.2
--
MOLECULE: O=C1OC(C2OC(=O)C(=O)C2C(=O)c2ccc(Cl)c(Cl)c2)C(C(=O)c2ccc(Cl)c(Cl)c2)C1=O (configuration not stated)
UNITS SYMBOL: %
REPORTED: 34.5
--
MOLECULE: O=c1oc2ccccc2c(O)c1/C=N/C(=S)Nc1ccccc1
UNITS SYMBOL: %
REPORTED: 20.8
--
MOLECULE: CCCCCCCCCCCCCCCCCC[n+]1cccc(C(=O)c2ccccc2)c1
UNITS SYMBOL: %
REPORTED: 97.3
--
MOLECULE: CCCCOc1ccc(CN2CCOC2=O)cc1
UNITS SYMBOL: %
REPORTED: 28.3
--
MOLECULE: O=C(O)C(SC1=NNC2(C(=O)N1)c1ccccc1-c1ccccc12)SC1=NNC2(C(=O)N1)c1ccccc1-c1ccccc12
UNITS SYMBOL: %
REPORTED: 95.8
--
MOLECULE: O=C1C(=O)N(c2ccccc2)N=C1N=Nc1ccccc1
UNITS SYMBOL: %
REPORTED: 41.8

----------
ASSAY REMARKS: NCI Yeast Anticancer Drug Screen. Data for the sgs1 mgt1 strain (AID 161);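 note: 0% = growth of cultures given vehicle only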
RUN CONDITIONS: S. cerevisiae sgs1 mgt1 strain, at 5.0 µM (retest, dose inferred, filed as 0.5), active compounds read high
About 79,000 compounds went through this panel and 15% of them were active in at least one assay; those are over-represented in the sample as a whole.
METRIC NAME: growth inhibition (%)

MOLECULE: CC1(C)C=CC2=C(O1)C(=O)c1ccccc1C2=O
UNITS SYMBOL: %
REPORTED: 18
--
MOLECULE: CNC(=O)OCCC(OC(=O)NC)C1CCC2C3CC=C4CC(OC(=O)NC)CCC4(C)C3CCC12C (stereo unspecified)
UNITS SYMBOL: %
REPORTED: 77
--
MOLECULE: Nc1ccc2c(c1)C(=O)c1ccccc1-2
UNITS SYMBOL: %
REPORTED: 0
--
MOLECULE: O=C(O)c1ccccc1/C=C1\Cc2ccc3c(c2C1=O)CCCC3
UNITS SYMBOL: %
REPORTED: 6
--
MOLECULE: COc1ccc(CN2CCCN(Cc3ccc(OC)cc3OC)C2c2cc(Cl)ccc2O)c(OC)c1
UNITS SYMBOL: %
REPORTED: 2
--
MOLECULE: C1=c2ccccc2=C2C(=C(c3ccccc3)C(c3ccccc3)=NN2c2ccccc2)S1
UNITS SYMBOL: %
REPORTED: -13
--
MOLECULE: O=[N+]([O-])/C(C(Cl)=C(Cl)Cl)=C(/Sc1ccccc1)N1CCCCC1
UNITS SYMBOL: %
REPORTED: -17
--
MOLECULE: COC(=O)C(=O)CC(=O)c1cccc(Cl)c1
UNITS SYMBOL: %
REPORTED: 18
--
MOLECULE: COc1nc(NC2OCC(O)C(O)C2O)c(Cl)c(=O)n1C (stereo unspecified)
UNITS SYMBOL: %
REPORTED: -2
--
MOLECULE: CCc1nc(N)nc(N)c1-c1ccc(N2CCCCC2)c([N+](=O)[O-])c1
UNITS SYMBOL: %
REPORTED: 1
--
MOLECULE: CCCC(=O)NCCNC(=O)CCC
UNITS SYMBOL: %
REPORTED: -61
